Experiment: Oral bioavailability in rat
Assay type: ADME, organism-based
Conditions: in vivo
PROPERTY_NAME: bioavailability

# COMPOUND, PROPERTY_NAME, OBSERVED_RESULT
data = [
    ("CCOC(=O)c1cc(C#N)c(N2CC(NC(=O)NS(=O)(=O)Cc3ccccc3)C2)nc1C", "bioavailability", "3%"),
    ("CCOC(=O)c1cnc(N2CC(NC(=O)NS(=O)(=O)c3ccccc3)C2)c(Cl)c1", "bioavailability", "20%"),
    ("CCOC(=O)c1cc(C#N)c(N2CCN(C(=O)NS(=O)(=O)c3ccc(Cl)s3)C(CCC(=O)O)C2)nc1C(F)(F)F (racemic)", "bioavailability", "0.83%"),
    ("CCOC(=O)c1cc(C#N)c(N2CC(NC(=O)NS(=O)(=O)c3ccccc3)C2)nc1C", "bioavailability", "39%"),
    ("CCOC(=O)c1cnc(N2CCN(C(=O)NS(=O)(=O)c3ccc(Cl)s3)CC2)c(Cl)c1", "bioavailability", "15%"),
    ("CCOC(=O)c1cc(C#N)c(N2CCN(C(=O)NS(=O)(=O)c3ccc(C)cc3)CC2)nc1C(F)(F)F", "bioavailability", "20%"),
]
